Experimental protocol: total protein half-life in vivo (active degradation + dilution); higher = more stable protein
Condition context: E. coli NCM3722 delta-hslV; growth: N-lim chemostat; doubling time 6 h
Test readout: total protein half-life in vivo
Report field: quantity (unit follows the number).

INSERT INTO results (residues, test_readout, readout_value) VALUES
  ('MKKVAIVGLGWLGMPLAMSLSARGWQVTGSKTTQDGVEAARMSGIDSYLLRMEPELVCDSDDLDALMDADALVITLPARRSGPGDEFYLQAVQELVDSALAHRIPRIIFTSSTSVYGDAQGTVKETTPRNPVTNSGRVLEELEDWLHNLPGTSVDILRLAGLVGPGRHPGRFFAGKTAPDGEHGVNLVHLEDVIGAITLLLQAPKGGHIYNICAPAHPARNVFYPQMARLLGLEPPQFRNSLDSGKGKIIDGSRICNELGFEYQYPDPLVMPLE [P0AD12]', 'total protein half-life in vivo', '4.63 h');

Let us move to another entry and its total protein half-life in vivo.
State its total protein half-life in vivo: "MSRPLLQLALDHSSLEAAQRDVTLLKDSVDIVEAGTILCLNEGLGAVKALREQCPDKIIVADWKVADAGETLAQQAFGAGANWMTIICAAPLATVEKGHAMAQRCGGEIQIELFGNWTLDDARDWHRIGVRQAIYHRGRDAQASGQQWGEADLARMKALSDIGLELSITGGITPADLPLFKDIRVKAFIAGRALAGAANPAQVAGDFHAQIDAIWGGARA"
4.08 h
